Measured pEC50 by item
molecular target: GK (glucokinase, residues 12-465) (Homo sapiens); construct: I.D. No. 1 corresponds to residues 12-465 of glucokinase; experiment: enzymatic glucokinase activity assay (ATP consumption, KinaseGlo luminescence); details: Kact = concentration that displays 50% of the maximal increase in GK activity; 5 μM ATP, 5 mM Glucose, 60 min, room temperature; reported as bins; read-out: pKact
pEC50: −log10 of the molar value.

COc1ccc2nc(NC(=O)[C@H](CC3CCOCC3)n3cc(S(=O)(=O)C4CC4)cn3)sc2n1 :: ≤ 4.80

Kindly note the recorded pEC50 for COc1cc(S(=O)(=O)C2CC2)c2cnn([C@@H](CC3CCOCC3)C(=O)Nc3ncc(F)s3)c2c1 , which is ≥ 6.50

Kindly note the recorded pEC50 for O=C(Nc1cnccn1)C(CC1CCOCC1)n1cc(S(=O)(=O)C2CC2)cn1 (stereo not shown) , which is ≤ 4.80

Kindly note the recorded pEC50 for O=C(Nc1ncc(F)s1)[C@@H](CC1CCOCC1)n1cc(S(=O)(=O)C2CC2)cn1 , which is ≤ 4.80

Kindly note the recorded pEC50 for COc1cc(S(=O)(=O)C2CC2)c2cnn(C(CC3CCOCC3)C(=O)Nc3ccn(C)n3)c2c1 (stereo not shown) , which is 4.90 to 5.40

Kindly note the recorded pEC50 for Cn1ccc(NC(=O)C(CC2CCOCC2)n2ncc3c(S(=O)(=O)C4CC4)cc(Cl)cc32)n1 (stereo not shown) , which is 5.90 to 6.40

Kindly note the recorded pEC50 for Nc1cc(S(=O)(=O)C2CC2)c2cnn(C(CC3CCOCC3)C(=O)Nc3ncc(F)s3)c2n1 (stereo not shown) , which is ≥ 6.50

Kindly note the recorded pEC50 for O=C(Nc1cnccn1)[C@H](CC1CCOCC1)n1ncc2c(S(=O)(=O)C3CC3)cncc21 , which is 5.50 to 5.80

Kindly note the recorded pEC50 for O=C(Nc1ncc(F)s1)[C@H](CC1CCOCC1)n1ncc2c(S(=O)(=O)C3CC3)cc(Cl)cc21 , which is ≥ 6.50

* * *

Measured EC50 by item
Target: GK (glucokinase, residues 12-465) (Homo sapiens)
Construct: I.D. No. 1 corresponds to residues 12-465 of glucokinase
Sequence (P35557 with tags, fused parts or gaps isoform P35557-2): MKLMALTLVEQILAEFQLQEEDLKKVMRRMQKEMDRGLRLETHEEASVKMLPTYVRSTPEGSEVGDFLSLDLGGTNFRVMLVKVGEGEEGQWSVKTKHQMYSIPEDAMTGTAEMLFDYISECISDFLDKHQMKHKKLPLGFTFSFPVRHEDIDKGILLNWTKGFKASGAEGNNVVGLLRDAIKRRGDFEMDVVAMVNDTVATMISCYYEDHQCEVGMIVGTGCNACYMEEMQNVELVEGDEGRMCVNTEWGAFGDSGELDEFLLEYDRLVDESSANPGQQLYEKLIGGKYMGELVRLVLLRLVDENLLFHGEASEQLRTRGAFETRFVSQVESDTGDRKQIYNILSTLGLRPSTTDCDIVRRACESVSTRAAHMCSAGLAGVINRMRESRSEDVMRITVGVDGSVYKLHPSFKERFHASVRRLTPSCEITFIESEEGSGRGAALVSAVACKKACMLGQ
Assay: enzymatic glucokinase activity assay (ATP consumption, KinaseGlo luminescence)
Settings: Kact = concentration that displays 50% of the maximal increase in GK activity; 5 μM ATP, 5 mM Glucose, 60 min, room temperature; reported as bins; read-out: pKact
Description: The activity of compounds as glucokinase activators may be assayed in vitro, in vivo or in a cell line. Provided below is an enzymatic glucokinase activity assay. Purified glucokinase may be obtained as follows. […] SEQ. […] Recombinant protein may be isolated from cellular extracts by passage over Sepharose Q Fast Flow resin (Pharmacia). […] The purity of GK may be determined on denaturing SDS-PAGE gel. […]

Below are worked cases with known answers.
COc1ccc2c(cnn2[C@@H](CC2CCOCC2)C(=O)Nc2cnccn2)c1S(=O)(=O)C1CC1 :: ≤ 0.316 µM
O=C(Nc1ccc(Cl)cn1)C(CC1CCOCC1)n1cc(S(=O)(=O)C2CC2)cn1 (stereo not shown) :: 3.98 to 12.6 µM
COc1ccc2nc(NC(=O)[C@@H](CC3CCOCC3)n3cc(S(=O)(=O)C4CC4)cn3)sc2n1 :: ≥ 15.8 µM
Cc1nn(C(CC2CCOCC2)C(=O)Nc2ncc(F)s2)c(C)c1S(=O)(=O)C1CC1 (stereo not shown) :: 1.58 to 3.16 µM

Kindly note the recorded EC50 for O=C(Nc1ncc(Cl)s1)C(CC1CCOCC1)n1cc(NS(=O)(=O)C2CC2)cn1 (stereo not shown) , which is 3.98 to 12.6 µM

Kindly note the recorded EC50 for O=C(O)c1cnc(NC(=O)C(CC2CCCC2)n2cc(S(=O)(=O)C3CC3)cn2)s1 (stereo not shown) , which is 3.98 to 12.6 µM

Kindly note the recorded EC50 for Cn1ccc(NC(=O)C(CC2CCOCC2)n2ncc3c(S(=O)(=O)C4CC4)cc(C#N)cc32)n1 (stereo not shown) , which is ≤ 0.316 µM

Kindly note the recorded EC50 for CS(=O)(=O)n1ccc(NC(=O)C(CC2CCOCC2)n2ncc3c(S(=O)(=O)C4CC4)cccc32)n1 (stereo not shown) , which is 3.98 to 12.6 µM

Kindly note the recorded EC50 for Cn1ccc(NC(=O)C(CC2CCOCC2)n2ncc3c(S(=O)(=O)C4CC4)cc(OC(F)F)cc32)n1 (stereo not shown) , which is 1.58 to 3.16 µM

Kindly note the recorded EC50 for O=C1CCC(CC(C(=O)Nc2ncc(F)s2)n2cc(S(=O)(=O)C3CC3)cn2)C1 (stereo not shown) , which is ≥ 15.8 µM

Kindly note the recorded EC50 for O=C1CC[C@H](C[C@@H](C(=O)Nc2ncc(F)s2)n2ncc3c(S(=O)(=O)C4CC4)cc(Cl)cc32)C1 , which is ≤ 0.316 µM

Kindly note the recorded EC50 for N#Cc1cc(S(=O)(=O)C2CC2)c2cnn([C@@H](CC3CCOCC3)C(=O)Nc3ncc(F)s3)c2c1 , which is ≤ 0.316 µM

Kindly note the recorded EC50 for O=C(Nc1ncc(Cl)s1)[C@H](CC1CCOCC1)n1cc(S(=O)(=O)C2CC2)cn1 , which is 1.58 to 3.16 µM

Kindly note the recorded EC50 for O=C(Nc1ncc(Cl)s1)C(CC1CCOCC1)n1ncc2c(S(=O)(=O)C3CC3)cc(F)cc21 (stereo not shown) , which is ≤ 0.316 µM

Kindly note the recorded EC50 for O=C(Nc1ncc(Cl)s1)C(CC1CCOCC1)n1ncc2c(S(=O)(=O)C3CC3)cccc21 (stereo not shown) , which is ≤ 0.316 µM

Kindly note the recorded EC50 for COc1ccc2c(cnn2[C@H](CC2CCOCC2)C(=O)Nc2ccn(C)n2)c1S(=O)(=O)C1CC1 , which is ≥ 15.8 µM

* * *

target: GK (glucokinase, residues 12-465) (Homo sapiens, UniProt P35557); construct: I.D. No. 1 corresponds to residues 12-465 of glucokinase; made in house; host or cells: DH10b-T1r E. coli; assay: enzymatic glucokinase activity assay (ATP consumption, KinaseGlo luminescence); type: biochemical; details: calculated maximal gain in GK enzyme activity at a saturating concentration of the compound; 5 μM ATP, 5 mM Glucose; reported as bins; read-out: % ACTmax
Measured Emax by item

O=C(Nc1ncc(Cl)s1)C(CC1CCOCC1)n1ncc2c(S(=O)(=O)C3CC3)cccc21 (stereo not shown) [Compound 59] :: 106 to 110%
CC(C)(C)S(=O)(=O)c1cnn([C@H](CC2CCOCC2)C(=O)Nc2ncc(F)s2)c1 [Compound 52] :: 90 to 100%
O=C(Nc1ncc(F)cc1F)C(CC1CCOCC1)n1ncc2c(S(=O)(=O)C3CC3)cccc21 (stereo not shown) [Compound 88] :: ≤ 90%

As a next step, examine the compound that follows.
Kindly note the recorded Emax for Cn1ccc(NC(=O)[C@@H](CC2CCOCC2)n2ncc3c(S(=O)(=O)C4CC4)ccnc32)n1 [Compound 99] , which is 90 to 100%

* * *

Molecular target: GK (glucokinase, residues 12-465) (Homo sapiens)
Construct: I.D. No. 1 corresponds to residues 12-465 of glucokinase; made in house; host or cells: DH10b-T1r E. coli
Sequence (P35557 with tags, fused parts or gaps isoform P35557-2): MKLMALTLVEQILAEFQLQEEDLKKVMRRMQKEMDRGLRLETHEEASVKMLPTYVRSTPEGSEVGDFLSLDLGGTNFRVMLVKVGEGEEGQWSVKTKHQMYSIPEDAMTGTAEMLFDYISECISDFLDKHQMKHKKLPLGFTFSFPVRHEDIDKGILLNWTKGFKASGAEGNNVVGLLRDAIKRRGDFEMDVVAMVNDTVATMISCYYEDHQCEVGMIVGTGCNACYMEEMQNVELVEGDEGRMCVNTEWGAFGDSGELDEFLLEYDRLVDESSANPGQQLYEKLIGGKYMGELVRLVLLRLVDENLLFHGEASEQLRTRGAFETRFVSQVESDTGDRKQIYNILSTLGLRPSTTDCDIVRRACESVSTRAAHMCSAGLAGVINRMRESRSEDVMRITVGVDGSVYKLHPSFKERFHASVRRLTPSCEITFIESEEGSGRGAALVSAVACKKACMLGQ
Experiment: enzymatic glucokinase activity assay (ATP consumption, KinaseGlo luminescence)
Type: biochemical
Settings: calculated maximal gain in GK enzyme activity at a saturating concentration of the compound; 5 μM ATP, 5 mM Glucose; reported as bins; read-out: % ACTmax
property: Emax

Below are worked cases with known answers.
O=C(Nc1ncc(F)s1)[C@H](CC1CCOCC1)n1cc(S(=O)(=O)C2CC2)cn1 [Compound 32] :: 101 to 105%
O=C(Nc1ncc(F)s1)[C@H](CC1CCCC1)n1cc(S(=O)(=O)C2CC2)cn1 [Compound 36] :: ≥ 111%
COc1cc(S(=O)(=O)C2CC2)c2cn(C(CC3CCOCC3)C(=O)Nc3ncc(F)s3)nc2c1 (stereo not shown) [Compound 73] :: 90 to 100%

Kindly note the recorded Emax for O=C(Nc1ncc(Cl)s1)C(CC1CCCC1)n1cc(S(=O)(=O)C2CC2)cn1 (stereo not shown) [Compound 33] , which is ≥ 111%

Kindly note the recorded Emax for O=C(Nc1ncc(F)s1)[C@@H](CC1CCOCC1)n1ncc2c(S(=O)(=O)C3CC3)ccnc21 [Compound 139] , which is 106 to 110%
